Granzyme B, Luminex (supernatant) by entry:
measured target: T1, T cell receptor (TCR) Vγ9 (TRGV9) (human, UniProt Q99603 21-122); note: unit not given here
T1 chain (looked up): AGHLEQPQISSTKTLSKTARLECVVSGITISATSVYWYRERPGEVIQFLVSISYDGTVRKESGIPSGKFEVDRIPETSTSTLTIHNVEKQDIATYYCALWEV
method notes: cell-based or functional assay
Answer with the value's number alone.

Look over these answered cases.
1) VG9B67 (antibody, human IgG1, kappa, V domains shown) VH: EVQLVESGGGLVKPGGSLRLSCAASGFTFSSYTMNWVRQAPGKGLEWVSSISSSSSYIDYAESVKGRFTISRDNAKNSLYLQMNSLRAEDTAVYYCARDGDILATIRGSFDYWGQGTTVTVSS VL: DIVMTQTPLSLPVTPGEPASISCRSSQSLLDSDAGNTYLDWYLQKPGQSPQLLIYTLSYRASGVPDRFSGSGSGTDFTLKISRVEAEDVAIYYCMQRIEFPITFGQGTKVEIKR ... 2550
2) VG9B33 (antibody, human IgG1, kappa, V domains shown) VH: EVQLVESGGGLVKPGGSLRLSCAASGFTFSSYNMNWVRQAPGKGLEWVSSISTSSSYIYYADSVKGRFTISRDNAKNSLYLQMNGLRAEDTAVYYCARDTSVTKYPDTFDIWGQGTMVTVSS VL: DIVMTQSPSSLSASVGDRVTITCRASQDINNYLAWFQQKPGKVPNLLIYGASTLQSGVPSRFTGSGSGTDFTLTISSLQPEDVATYYCQKYNSAPFTFGPGTKVDIKR ... 1990

In: Granzyme B, Luminex (supernatant) lookup needed for VG9B384 (antibody, human IgG1, lambda, V domains shown) VH: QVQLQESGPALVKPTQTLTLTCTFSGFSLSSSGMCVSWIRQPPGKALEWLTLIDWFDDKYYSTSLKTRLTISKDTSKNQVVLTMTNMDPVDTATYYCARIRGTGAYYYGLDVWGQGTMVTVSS VL: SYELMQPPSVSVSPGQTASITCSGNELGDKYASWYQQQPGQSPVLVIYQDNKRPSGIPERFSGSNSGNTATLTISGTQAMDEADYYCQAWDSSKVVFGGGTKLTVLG , thanks.
Out: 2300
